TEST: viability loss in pontine glioma line – cell-based, SU-DIPG-IV, MIPE4.0, CellTiter-Glo, qHTS, dose response (AID 1347063);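 note: compound exposure lasted 48 hours before the viability readout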
CONDITIONS_USED: CellTiter-Glo ATP luminescence
Records with an inconclusive call do not appear. Calls of active or inactive are those of the source. No cut-off is given here; in the data, nearly all actives have AC50 up to about 30 µM.
One label from this list, please: t for active, f for inactive

Look up the recorded call for C[C@@H](N)c1ccc(C(=O)Nc2ccnc3[nH]ccc23)cc1 in this test.
t

Just curious, what result did CS(=O)(=O)N1CCc2c(-c3cnc(N)nc3)nc(N3CCOCC3)nc21 get here?
t

What did this assay record as the result for Nc1ncnc2c1c(-c1cccc(OCc3ccccc3)c1)cn2C1CC(CN2CCCC2)C1 (stereo not given) ?
t

Check the results log: what was the call for CCN1CCC(n2cc(CNc3cc(Cl)c4ncc(C#N)c(Nc5ccc(F)c(Cl)c5)c4c3)nn2)CC1 ?
t

Please indicate how the test categorized CC(C(C)N1CC(=O)NC(=O)C1)N1CC(=O)NC(=O)C1 (stereo not given) .
f

What call does the record list for Clc1cccc(-n2nnnc2NCc2ccccc2Oc2ccccn2)c1Cl ?
f

Hi team, can someone confirm the assay call for NC1(C(=O)N[C@@H](CCO)c2ccc(Cl)cc2)CCN(c2ncnc3[nH]ccc23)CC1 ?
t

Just curious, what result did COc1cccc2c1CCCC2CCCN1CCN(C2CCCCC2)CC1 (stereo not given) get here?
t

In this assay, the call recorded for CN1CC[C@@H](c2c(O)cc(O)c3c(=O)cc(-c4ccccc4Cl)oc23)[C@@H](O)C1 was what?
t

Returns: the outcome recorded for CC1(C)CCC2=C(O1)c1ccccc1C(=O)C2=O in this assay.
t

----------
TEST: BT084 cell growth, single and combined drugs, ICGC_MB145, cisplatin and BGB IC40 combos (AID 1671461);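 note: cells exposed to drugs for 96 hours; 0% = vehicle DMSO and 100% = high DMSO full killing control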
CONDITIONS_USED: BT084 medulloblastoma cells, drug combinations, at 0.5 µM, stronger effect = higher value
PROPERTY: inhibition (%)
Number only, in %; omit the unit.

Consider the compound NC1CCC(N[C@@H]2C[C@H]2c2ccccc2)CC1 (some centres undefined) and give its measured inhibition.
-8.52

// lookup inhibition for Cc1cn([C@@H]2O[C@H](CO)[C@@H](O)[C@@H]2F)c(=O)[nH]c1=O
-12.8

Given the entry O=c1cc(N2CCOCC2)oc2c(-c3cccc4c3sc3ccccc34)cccc12 , report its measured inhibition.
-28.7

Which value of inhibition has been reported for COc1ccc(-n2c(SCCCN3C(=O)c4cccc5cccc(c45)C3=O)nnc2-c2ccncc2)cc1 in the records?
3.66

----------
TEST: growth inhibition of DIPG cells – cell-based, MIPE5.0 library, qHTS (AID 1347068);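 for IC50: cells exposed to compound for 48 hours before viability readout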
CONDITIONS_USED: SU-DIPG-XXV viability
Results filed as inconclusive are left out. Activity calls are given as the source filed them. The limit is not given here; nearly all actives have IC50 up to about 30 µM.
// classify into 1.0 (active), 0.0 (inactive)

Outcome? N#Cc1c(NC(=O)c2cccc3ccccc23)sc2c1CCCC2
1.0

Which result was noted for this compound in the test: CCC(=O)O[C@]1(C(=O)CO)CC[C@H]2[C@@H]3CCC4=CC(=O)CC[C@]4(C)[C@H]3CC[C@@]21C
0.0

Just curious, what result did CC[C@H](CC[C@@H](C)[C@H]1CC[C@H]2[C@@H]3CC=C4C[C@@H](O)CC[C@]4(C)[C@H]3CC[C@]12C)C(C)C get here?
0.0

What did the test return for O=C1NC(=O)/C(=C\c2ccc(-c3ccc(F)cc3)o2)S1 ?
0.0

Name the outcome recorded for Cn1cc(-c2c[nH]c3ncnc(N4CCOCC4)c23)cn1 in the assay.
0.0

Assay result, entry COc1ccc(-n2c(C)c([N+](=O)[O-])c3ccc(O)cc32)cc1 — outcome?
0.0

Write down the call the test reported for this compound. Item: CNc1nc(Nc2ccc(C(=O)N3CCOCC3)cc2OC)ncc1Cl
0.0

Identify the outcome logged in this assay for the compound shown: c1ccc2c(Oc3nc(Nc4ccc(N5CCOCC5)cc4)c4ncn(C5CCCCC5)c4n3)cccc2c1
0.0

Please share the test call associated with COc1cc(C(=O)NC2CCN(C)CC2)ccc1Nc1ncc2c(n1)N(C1CCCC1)CCC(=O)N2C(C)C .
0.0

Which outcome was assigned to NCCOc1cc(C(=O)Nc2cc(OCCN)c3ccccc3n2)nc(C(=O)Nc2cc(OCCN)c3ccccc3n2)c1 in this test?
0.0

Lab log entry: COc1nc(C)cnc1NS(=O)(=O)c1cccnc1-c1ccc(-c2nnco2)cc1 — outcome as called in the assay?
0.0

Hi, sorry to bother you, what did the test record for COc1cccc(-c2cc(F)ccc2C2Cc3nc(N)nc(C)c3C(=O)N2)n1 (stereo not given) ?
1.0

Per the assay record, what outcome was assigned to CC1(O)CC(c2nc(-c3ccc4ccc(-c5ccccc5)nc4c3)c3c(N)nccn23)C1 (stereo not given) ?
0.0

Given C=C1C(=O)[C@@]23C(CC[C@@H]1[C@H]2O)[C@@]12CO[C@]3(O)[C@@H](O)[C@@H]1C(C)(C)CC[C@@H]2O (stereo not given in full) , state the outcome it received in this test.
1.0

# fetch the recorded call for COc1ccc(COc2cc3oc(=O)c4cc(C(C)O)ccc4c3cc2OC)cc1 (stereo not given) here
0.0

# outcome recorded in this test, key = c1cn2cc(-c3ccc4cn[nH]c4c3)nc(Nc3ccc(N4CCOCC4)cc3)c2n1
0.0

Given C/C(=N\NC(=O)c1cccc(S(=O)(=O)N2CCOCC2)c1)c1cc(Cl)ccc1O , state the outcome it received in this test.
0.0

Recorded test outcome, item O=C1CC[C@H](N2Cc3c(OCc4ccc(CN5CCOCC5)cc4)cccc3C2=O)C(=O)N1
0.0

Status in this test for c1cc(-c2cnn3cc(-c4ccc(N5CCNCC5)cc4)cnc23)c2cccnc2c1 ?
1.0

Outcome? O=C(O)CCCCN(CCc1ccccc1OCc1ccc(CCc2ccccc2)cc1)Cc1ccc(C(=O)O)cc1
0.0

Name the outcome recorded for CN(C[C@@H]1COCCO1)S(=O)(=O)Nc1ccc2ccc3ncc(-c4cnn(C)c4)cc3c(=O)c2c1 in the assay.
1.0

Identify the outcome logged in this assay for the compound shown: Cc1c(F)cccc1NC(=O)Nc1ccc(Cl)c(S(=O)(=O)[C@H]2CCCNC2)c1O
0.0

Per the assay record, what outcome was assigned to NC(=O)c1ccc2nc(-c3ccc(C4(N)CCC4)cc3)c(-c3ccccc3)n2n1 ?
0.0

For CCS(=O)(=O)N1CCN(c2ccc(Nc3ncc(C(N)=O)c(NC4CC4)n3)cc2)CC1 , what call appears in the results of this test?
1.0

I'd appreciate the recorded outcome for Cc1cc(C)c2c(c1)[C@@H](N(Cc1cc(C(F)(F)F)cc(C(F)(F)F)c1)c1nnn(C)n1)CCCN2CC1CCC(C(=O)O)CC1 (stereo not given in full) from this test.
0.0

# fetch the recorded call for O=C(O)CCCCCC(=O)NN=C1CCCC1 here
0.0

Hi, sorry to bother you, what did the test record for O=C1Cc2cc(C(=O)NC3C[C@H]4CC[C@@H](C3)N4S(=O)(=O)CC3CCN(CCCC(F)(F)F)CC3)c(Cl)cc2N1 (stereo not given in full) ?
0.0

// outcome(item) with item = CC(=O)Nc1ccc(C(=O)Nc2ccccc2N)cc1
1.0

What did the test return for Cc1[nH]nc2ccc(-c3cncc(OC[C@@H](N)Cc4ccccc4)c3)cc12 ?
1.0

What classification did CC(C)=CCC[C@](C)(O[C@@H]1O[C@H](CO[C@@H]2O[C@H](CO)[C@@H](O)[C@H](O)[C@H]2O)[C@@H](O)[C@H](O)[C@H]1O)[C@H]1CC[C@]2(C)[C@@H]1[C@H](O)C[C@@H]1[C@@]3(C)CC[C@H](O[C@@H]4O[C@H](CO)[C@@H](O)[C@H](O)[C@H]4O[C@@H]4O[C@H](CO)[C@@H](O)[C@H](O)[C@H]4O)C(C)(C)[C@@H]3CC[C@]12C end up with in this test?
0.0

Record lookup: outcome of this test for COc1cc2ncnc(-n3nc(-c4ccccn4)nc3N)c2cc1OC ?
0.0

Look up the recorded call for O=C(Nc1cc(Oc2cc(F)c(NC(=O)C3(C(=O)Nc4ccc(F)cc4)CC3)cc2F)ccn1)C1CC1 in this test.
1.0

Field: outcome | Entry: O=C(c1ccc(C(=O)N2CCC(N3CCCC3)CC2)c(Nc2ccccc2)c1)N1CCC(N2CCCC2)CC1
0.0

Which outcome was entered for the compound Clc1ccc2ncc(-c3cccc(NC4CNC4)n3)n2c1 in this test?
0.0

Can you look up the reported call for CCc1cccc2c3c([nH]c12)[C@@](CC)(CC(=O)O)OCC3 for me?
0.0

----------
TEST: growth inhibition, single agent and combos, cell-based, chromothripsis tumors, cisplatin or BGB combos (AID 1671450);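 note: cells exposed to compound for four days; 0% = vehicle DMSO and 100% = cell killing by high DMSO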
CONDITIONS_USED: HDN33 neuroblastoma cells, cisplatin combo, at 5 µM, stronger effect = higher value
PROPERTY: inhibition (%)
Provide only the numeric value, understood in %.

Could you tell me which inhibition is on file for COc1ccc(-c2nc(N3CCOCC3)c3sc(CN(C)c4ncc(C(=O)NO)cn4)cc3n2)cn1 ?
99.9

Could you tell me which inhibition is on file for CN(C)CCN1C(=O)c2cccc3cc(N)cc(c23)C1=O ?
48.1

Quick one: inhibition of CN(C)Cc1c(C(=O)NCCOc2ccc(C(=O)NO)cc2)oc2ccccc12 ?
99.8

So what does the record say about inhibition for NC1CCC(N[C@@H]2C[C@H]2c2ccccc2)CC1 (stereo not given in full) ?
-5

Item under review: COc1ccc(C(=O)C2CCN(CC(=O)N(Cc3nc4c(c(=O)[nH]3)COCC4)CC3CC3)CC2)cc1 . Reported inhibition?
9.88
